biological target: Luciferin 4-monooxygenase (Photinus pyralis); assay: firefly luciferase enzyme inhibitors, primary screen, artefact control for luciferase-based inhibitor screens, biochemical, luminescence, ATPLite (AID 1006); conditions: 10 min, at 10 µM, stronger effect = higher value
The whole screen tested about 200,000 compounds, of which about 3,000 (1.5%) were called active. The entries come from a sample that favours actives as a whole.
measured.endpoint: inhibition (%)
Write down the numeric answer in % and omit the unit.

INSERT INTO measurements (molecule, measured_endpoint, display_unit, measured_number) VALUES
  ('Cc1ccc(OCCCC(=O)NC(C)c2ccccc2)c(C)c1 (stereo not drawn)', 'inhibition', '%', -1),
  ('N#CC1(C#N)C(C(=O)C23CC4CC(CC(C4)C2)C3)C12CCOCC2 (stereo not drawn)', 'inhibition', '%', -9.2),
  ('O=C(NC(Cc1c[nH]c2ccccc12)C(=O)O)/C(=C/c1ccco1)NC(=O)c1ccccc1 (stereo not drawn)', 'inhibition', '%', -0.6);

Task item: Consider the molecule shown here: C[C@@H]1NC(=O)c2cc([N+](=O)[O-])cc(F)c2NCCC[C@@H](C(N)=O)NC(=O)[C@H](CC(N)=O)NC1=O What is its recorded inhibition?
Reply: -4.9

Task item: Request the reported inhibition associated with CCOc1ccc(N2C(=O)CN(c3cccc4ccccc34)C2=S)cc1
Reply: -3.3
